# STUDY TARGET: AMP-activated protein kinase, AMPK (Homo sapiens) (UniProt P54646+O43741+P54619+Q9UGJ0+Q9Y478+Q13131+Q9UGI9)
# PROTOCOL NOTES: AMP-dependent Kinase enzyme assay. An in vitro enzyme assay that detects ADP turnover that is directly proportional to AMPK activity. This uses naive AMPK that is activated during the assay with MK-8722
# Format: functional
# Parameters: scale not given: direction of the effect not stated beside the values
# CONDITION LABEL: 30 µM
ENDPOINT NAME: Percent Effect (%)
Numbers only, in %.

These solved cases illustrate the format of a correct answer.
CCc1noc(CN2CCN(C(=O)N(C)C)CC2)n1 : 7.62
CCc1nnsc1C(=O)NC1CCN(c2ccccn2)CC1 : 1.62
COc1cc(CNC2CCc3nc(C)nn3C2)cc2c1OCCO2 (stereo not given) : -9.24
COCC(NC(=O)c1ccc[nH]1)c1cccc(C(F)(F)F)c1 (stereo not given) : -4.37
CCc1cnc2c(c1Nc1ccncc1)c(=O)n(C)c(=O)n2C : 5.71
Cc1nn(C)c2cnn(C(C)C(=O)NCc3cccnc3)c12 (stereo not given) : -1.87
COc1ccc(CN(C)Cc2nc3c(cnn3C)c(=O)[nH]2)cc1OC : 4.17
CC1c2ncc(Cn3cncn3)n2CCN1C(=O)C1CCOCC1 (stereo not given) : -5.52

Look up Percent Effect for the entries below, preserving their order.
1. Cn1cc(C2CCCN2C(=O)CCCOCc2ccccc2)cn1 (stereo not given)
2. CCOCCN1CCN(Cc2nnc(C3CC3)o2)CC1CC (stereo not given)
3. O=C(CCN1CCC(C(=O)c2cc(F)ccc2F)CC1)NC1CC1
4. CCOCC(=O)N1C[C@@H]2COC[C@H](c3nc(C)no3)[C@@H]2C1
5. COc1cc(C(=O)N(C2CC2)C2CC(=O)NC2=O)ccc1C (stereo not given)

Out:
1. -1.48
2. -18
3. 2.46
4. 5.84
5. 4.42
